The measured values listed here are drawn from PubChem BioAssay (EPA / NIEHS).

Read-out: CD38, CD38 (gene 952)
Assay: BSK_SAg_CD38: BioMAP Diversity Plus: SAg Assay for CD38 Biomarker Activity (AID 2283087)
Details: primary human HUVEC with PBMC; actives raise or lower the signal
Protocol: BSK_SAg is a cell-based, multiplexed-readout assay that uses umbilical vein endothelium and peripheral blood mononuclear cells, a human vascular primary cell co-culture, with measurements taken at 24 hours after chemical dosing in a 96-well plate.BSK_SAg_CD38 is one of 10 assay component(s) measured or calculated from the BSK_SAg assay. […] This assay endpoint, BSK_SAg_CD38, was analyzed with bidirectional fitting relative to DMSO as the negative control and baseline of activity. […]
The source made the active and inactive calls. Rule for the calls: active = hit-call score of the fitted dose curve at least 0.9, where 1 is the maximum; inactive = score below 0.9.
The reply should be one of these categories: active, inactive

Query: What outcome does the record of this test show for CCCSP(=O)(OCC)SCCC ?
Reply: inactive

Query: Okay, and CCOP(=S)(OCC)Oc1ccc([N+](=O)[O-])cc1 ?
Reply: active

Query: Could you do the same for C=C(C)[C@H]1Cc2c(ccc3c2O[C@@H]2COc4cc(OC)c(OC)cc4[C@@H]2C3=O)O1 , please?
Reply: active

Query: Repeat for the following compound: CCCCN(CC)c1c([N+](=O)[O-])cc(C(F)(F)F)cc1[N+](=O)[O-]
Reply: active

Query: What do you have for N#CSCSC#N ?
Reply: active

Query: How about CC1(C(=O)Nc2ccc(O)c(Cl)c2Cl)CCCCC1 ?
Reply: inactive

Query: Param item: CCC(=NOC/C=C/Cl)C1=C(O)CC(C2CCOCC2)CC1=O (configuration not stated)
Reply: inactive

====

molecular target: Peroxisome proliferator-activated receptor gamma (Homo sapiens) (UniProt P37231); experiment: ATG_PPARg_TRANS: Attagene TRANS-FACTORIAL HepG2 Assay for human Peroxisome Proliferator-activated Receptor-gamma (PPARg) (AID 2283007)
Sequence (P37231 whole entry, looked up): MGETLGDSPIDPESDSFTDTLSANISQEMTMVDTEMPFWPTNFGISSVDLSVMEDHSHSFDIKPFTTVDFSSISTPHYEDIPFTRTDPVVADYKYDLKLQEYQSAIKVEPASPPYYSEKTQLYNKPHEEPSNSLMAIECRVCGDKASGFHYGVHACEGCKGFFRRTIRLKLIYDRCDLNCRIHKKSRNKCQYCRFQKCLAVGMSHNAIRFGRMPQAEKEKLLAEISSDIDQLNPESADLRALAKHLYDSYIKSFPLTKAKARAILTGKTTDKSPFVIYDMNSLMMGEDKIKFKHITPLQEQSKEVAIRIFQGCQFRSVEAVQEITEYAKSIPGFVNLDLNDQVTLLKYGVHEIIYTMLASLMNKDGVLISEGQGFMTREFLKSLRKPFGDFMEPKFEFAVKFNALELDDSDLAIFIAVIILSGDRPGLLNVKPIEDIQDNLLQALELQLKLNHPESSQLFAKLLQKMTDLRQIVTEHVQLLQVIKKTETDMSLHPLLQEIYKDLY
Inconclusive results are not listed. Active and inactive are the calls of the source. How the source made its calls: active means hit-call score of the fitted dose curve at least 0.9, where 1 is the maximum; inconclusive means response in the unintended direction; inactive means score below 0.9.
Your answer must be one of the following: active, inactive

Query: Which result was noted for this compound in the test: CCc1cccc(C)c1N(C(=O)CCl)C(C)COC (stereo not given)
Reply: active

Query: Try this compound next: CCOC(=O)COc1cc(-c2nn(C)c(OC(F)F)c2Cl)c(F)cc1Cl
Reply: inactive

Query: Also CCOP(=S)(OCC)SCCSCC ?
Reply: inactive

Query: Can you check C[Si](Cn1cncn1)(c1ccc(F)cc1)c1ccc(F)cc1 next?
Reply: active

Query: What do we get for CCCOc1nn(C(=O)NS(=O)(=O)c2ccccc2C(=O)OC)c(=O)n1C ?
Reply: inactive

Query: Same for CSc1nc(NC(C)C)nc(NC(C)C)n1
Reply: active

Query: # repeat for CCC(=NOC/C=C/Cl)C1=C(O)CC(C2CCOCC2)CC1=O (stereo not given)
Reply: inactive

Query: Input N#CSCSC#N
Reply: inactive

Query: Here is the next compound: CC(C)=CC1C(C(=O)OCN2C(=O)C3=C(CCCC3)C2=O)C1(C)C (stereo not given)
Reply: active

Query: Try this compound too: CC[C@H](C)[C@H]1O[C@]2(C=C[C@@H]1C)C[C@@H]1C[C@@H](C/C=C(\C)[C@@H](O[C@H]3C[C@H](OC)[C@@H](O[C@H]4C[C@H](OC)[C@@H](NC)[C@H](C)O4)[C@H](C)O3)[C@@H](C)/C=C/C=C3\CO[C@@H]4[C@H](O)C(C)=C[C@@H](C(=O)O1)[C@]34O)O2
Reply: inactive

Query: Further, for CC1=NNC(=O)N(/N=C/c2cccnc2)C1 ?
Reply: inactive

Query: Can you check CCOP(=O)(NC(C)C)Oc1ccc(SC)c(C)c1 (stereo not given) next?
Reply: active

Query: Same question for C[N+]1(C)CCCCC1 please.
Reply: inactive

Query: What would you report for CCCCOC(=O)c1ccccc1C(=O)O ?
Reply: inactive

Query: Again, but for CN(C)NC(=O)CCC(=O)O
Reply: inactive

====

Read-out: Monokine induced gamma interferon (MIG), CXCL9 (gene 4283)
Experiment: BSK_BE3C_MIG: BioMAP Diversity Plus: BE3C Assay for Monokine induced gamma interferon (MIG) Biomarker Activity (AID 2283035);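 note: MIG protein measured by ELISA in BE3C cultures after 24 h of dosing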
Details: primary human bronchial epithelial cells; actives raise or lower the signal
Experimental: BSK_BE3C is a cell-based, multiplexed-readout assay that uses bronchial epithelial cell, a human lung primary cell, with measurements taken at 24 hours after chemical dosing in a 96-well plate.BSK_BE3C_MIG is an assay component measured in the BSK_BE3C assay. It measures MIG antibody related to regulation of gene expression using ELISA technology.Data from the assay component BSK_BE3C_MIG was analyzed into 1 assay endpoint. […]
Calls of active or inactive are those of the source. How the source made its calls: active means hit-call score of the fitted dose curve at least 0.9, where 1 is the maximum; inactive means score below 0.9.
ASSAY METRIC: outcome

CCOP(=S)(OCC)Oc1ccc2c(C)c(Cl)c(=O)oc2c1 :: inactive
COP(=O)(NC(C)=O)SC (stereo not drawn) :: inactive
CCc1cccc(C)c1N(C(=O)CCl)C(C)COC (stereo not drawn) :: inactive

====

Read-out: CD40, CD40 (gene 958)
Assay: BSK_LPS_CD40: BioMAP Diversity Plus: LPS Assay for CD40 Biomarker Activity (AID 2283076)
Conditions: primary human HUVEC with PBMC; actives raise or lower the signal
Description: BSK_LPS is a cell-based, multiplexed-readout assay that uses umbilical vein endothelium and peripheral blood mononuclear cells, a human vascular primary cell co-culture, with measurements taken at 24 hours after chemical dosing in a 96-well plate.BSK_LPS_CD40 is an assay component measured in the BSK_LPS assay. It measures CD40 antibody related to regulation of gene expression using ELISA technology.Data from the assay component BSK_LPS_CD40 was analyzed into 1 assay endpoint. […]
Active and inactive are the calls of the source. How the source made its calls: active means hit-call score of the fitted dose curve at least 0.9, where 1 is the maximum; inactive means score below 0.9.
Mark one answer only. Choices: T (active), F (inactive)

Query: What call does the record list for CNC(=O)ON=C(C)SC ?
Reply: F

Query: Next up: CCCCN(CC)c1c([N+](=O)[O-])cc(C(F)(F)F)cc1[N+](=O)[O-]
Reply: T

Query: Now the compound CCCOCC(=Nc1ccc(Cl)cc1C(F)(F)F)n1ccnc1
Reply: T

Query: Repeat for the following compound: CSC1=N[C@@](C)(c2ccccc2)C(=O)N1Nc1ccccc1
Reply: F

Query: Further, for CN(C)[C@@H]1C(=O)C(C(N)=O)=C(O)[C@@]2(O)C(=O)C3=C(O)c4c(O)cccc4[C@@](C)(O)[C@H]3[C@H](O)[C@@H]12 ?
Reply: F

Query: Consider next the compound CNC(=O)Oc1cccc2c1OC(C)(C)O2 in the same way.
Reply: T

Query: Lookup CNc1cnn(-c2cccc(C(F)(F)F)c2)c(=O)c1Cl
Reply: F

Query: Next compound up: CCCSP(=O)(OCC)SCCC
Reply: F

Query: Same for CC(=NC#N)N(C)Cc1ccc(Cl)nc1
Reply: F

Query: What do we get for CON=C(C(=O)OC)c1ccccc1CON=C(C)c1cccc(C(F)(F)F)c1 ?
Reply: T

Query: Queued: CC1(C(=O)Nc2ccc(O)c(Cl)c2Cl)CCCCC1
Reply: F

====

read-out: Monocyte Chemoattractant Protein-1 (MCP1), CCL2 (gene 6347); test: BSK_CASM3C_MCP1: BioMAP Diversity Plus: CASM3C Assay for Monocyte Chemoattractant Protein-1 (MCP1) Biomarker Activity (AID 2283046); details: primary human coronary artery smooth muscle cells; actives raise or lower the signal;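 note: MCP-1 level quantified by ELISA 24 h after dosing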
Active and inactive are the calls of the source. Rule for the calls: active = hit-call score of the fitted dose curve at least 0.9, where 1 is the maximum; inactive = score below 0.9.
ASSAY METRIC: AC50

O=C(O)c1cc(Oc2ccc(C(F)(F)F)cc2Cl)ccc1[N+](=O)[O-] :: inactive
CC[C@H](C)[C@H]1O[C@]2(C=C[C@@H]1C)C[C@@H]1C[C@@H](C/C=C(\C)[C@@H](O[C@H]3C[C@H](OC)[C@@H](O[C@H]4C[C@H](OC)[C@@H](NC)[C@H](C)O4)[C@H](C)O3)[C@@H](C)/C=C/C=C3\CO[C@@H]4[C@H](O)C(C)=C[C@@H](C(=O)O1)[C@]34O)O2 :: 12.9 µM (active)
COc1cc(OC)nc(Sc2cccc(Cl)c2C(=O)O)n1 :: inactive

====

read-out: xenobiotic metabolism (CYP1A2), CYP1A2 (gene 1544); assay: CLD_CYP1A2_48hr: CellzDirect (CLD) Gene Expression Assay for xenobiotic metabolism (CYP1A2) at 48 hours (AID 2283703)
Inconclusive results are not listed. The source made the active and inactive calls. Rule for the calls: active = hit-call score of the fitted dose curve at least 0.9, where 1 is the maximum; inconclusive = response in the unintended direction; inactive = score below 0.9.
Field 'call' accepts True = active, False = inactive

Query: Hello, I am checking results. What call was entered for CNC(=O)ON=C(SC)C(=O)N(C)C ?
Reply: False

Query: Next compound up: CCOP(=S)(Oc1cnc(C(C)(C)C)nc1)OC(C)C (stereo not drawn)
Reply: True

Query: Queued: CCOP(=S)(OCC)Oc1ccc([N+](=O)[O-])cc1
Reply: True

Query: Next compound up: CCOP(=S)(OCC)Oc1ccc2c(C)c(Cl)c(=O)oc2c1
Reply: True

Query: Here is the next compound: CCOP(=S)(OCC)Oc1cc(C)nc(C(C)C)n1
Reply: True

Query: Let us now turn to CCNc1nc(Cl)nc(NC(C)(C)C#N)n1
Reply: False

Query: Now consider CCC(CC)Nc1c([N+](=O)[O-])cc(C)c(C)c1[N+](=O)[O-] .
Reply: True

Query: Moving on to the next compound: CCCCOC(=O)c1ccccc1C(=O)O
Reply: False
